Origin of values: patent US20210206841A1

Biological target: T1, tip-chimeric peptide IhfA5-mIhfB4NTHI (nontypeable Haemophilus influenzae …)
T1 construct: also called IHF(NTHI) tip chimeric peptide; IHFNTHI tip chimeric peptide
T1 peptide: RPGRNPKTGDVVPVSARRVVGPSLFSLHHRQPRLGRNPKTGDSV
Assay: SPR Biacore 3000, HuMab immobilized, peptide as analyte
log10 koff values by entry
Quantity: log10 koff (log10 of the value in s⁻¹)

[[record]]
binder = "humanized anti-tip monoclonal antibody, heavy chain SEQ ID NO: 1 and light chain SEQ ID NO: 7 (antibody, V domains shown, also called HuTipMab; TP-21949) VH: EVKLVESGGGLVQPGGSLRLSCAASGFTFRTYAMSWVRQAPGKGLEWVATIGSDRRHTYYPDSVKGRFTISRDNAKNTLYLQMNSLRAEDTAVYYCVGPYDGYYGEFDYWGQGTLVTVSS VL: DVVMTQSPLSLPVTLGQPASISCRSSQSLLDSDGKTFLNWLQQRPGQSPRRLIYLVSKLDSGVPDRFSGSGSGTDFTLKISRVEAEDVGVYYCWQGTHFPYTFGQGTKLEIKR"
meas_value = -3.47

[[record]]
binder = "humanized anti-tip monoclonal antibody, heavy chain SEQ ID NO: 2 and light chain SEQ ID NO: 8 (antibody, V domains shown, also called H10211 (1F8.F1 Humanized HC2) + L10211 (1F8.F1 Humanized LC2)) VH: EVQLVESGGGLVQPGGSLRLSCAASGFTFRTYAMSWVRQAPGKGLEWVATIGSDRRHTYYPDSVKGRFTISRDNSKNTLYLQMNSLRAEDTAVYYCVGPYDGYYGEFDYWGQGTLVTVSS VL: DVVMTQSPLSLPVTLGQPASISCRSSQSLLDSDGKTFLNWLQQRPGQSPRRLIYLVSKRDSGVPDRFSGSGSGTDFTLKISRVEAEDVGVYYCWQGTHFPYTFGQGTKLEIKR"
meas_value = -4.11

[[record]]
binder = "humanized anti-tip monoclonal antibody, heavy chain SEQ ID NO: 3 and light chain SEQ ID NO: 9 (antibody, V domains shown, also called H10212 (1F8.F1 Humanized HC3) + L10212 (1F8.F1 Humanized LC3)) VH: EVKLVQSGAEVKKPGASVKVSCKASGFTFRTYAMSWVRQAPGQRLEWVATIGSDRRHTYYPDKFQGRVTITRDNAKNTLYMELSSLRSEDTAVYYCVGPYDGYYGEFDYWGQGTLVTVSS VL: DVVMTQSPDSLAVSLGERATINCKSSQSLLDSDGKTFLNWLQQKPGQPPKRLIYLVSKLDSGVPDRFSGSGSGTDFTLTISSLQAEDVAVYYCWQGTHFPYTFGQGTKLEIKR"
meas_value = -2.72

[[record]]
binder = "humanized anti-tip monoclonal antibody, heavy chain SEQ ID NO: 2 and light chain SEQ ID NO: 9 (antibody, V domains shown, also called H10211 (1F8.F1 Humanized HC2) + L10212 (1F8.F1 Humanized LC3)) VH: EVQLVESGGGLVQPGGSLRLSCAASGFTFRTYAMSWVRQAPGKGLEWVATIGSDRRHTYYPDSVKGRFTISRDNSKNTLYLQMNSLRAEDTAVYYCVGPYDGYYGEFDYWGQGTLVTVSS VL: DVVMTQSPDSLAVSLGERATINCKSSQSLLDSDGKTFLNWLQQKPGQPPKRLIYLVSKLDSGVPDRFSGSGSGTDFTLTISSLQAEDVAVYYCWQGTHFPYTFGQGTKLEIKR"
meas_value = -4.13

[[record]]
binder = "humanized anti-tip monoclonal antibody, heavy chain SEQ ID NO: 3 and light chain SEQ ID NO: 8 (antibody, V domains shown, also called H10212 (1F8.F1 Humanized HC3) + L10211 (1F8.F1 Humanized LC2)) VH: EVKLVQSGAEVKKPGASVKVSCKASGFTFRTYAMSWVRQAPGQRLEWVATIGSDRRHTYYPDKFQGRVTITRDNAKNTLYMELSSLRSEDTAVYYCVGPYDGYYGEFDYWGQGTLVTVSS VL: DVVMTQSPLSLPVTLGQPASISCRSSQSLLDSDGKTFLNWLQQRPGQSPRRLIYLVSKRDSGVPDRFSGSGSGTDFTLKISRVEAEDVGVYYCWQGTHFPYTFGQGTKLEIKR"
meas_value = -2.72

[[record]]
binder = "humanized anti-tip monoclonal antibody, heavy chain SEQ ID NO: 1 and light chain SEQ ID NO: 8 (antibody, V domains shown, also called H10210 (1F8.F1 Humanized HC1) + L10211 (1F8.F1 Humanized LC2)) VH: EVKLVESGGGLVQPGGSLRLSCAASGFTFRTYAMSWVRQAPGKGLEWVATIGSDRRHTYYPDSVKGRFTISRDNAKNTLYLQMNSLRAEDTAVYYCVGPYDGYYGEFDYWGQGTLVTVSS VL: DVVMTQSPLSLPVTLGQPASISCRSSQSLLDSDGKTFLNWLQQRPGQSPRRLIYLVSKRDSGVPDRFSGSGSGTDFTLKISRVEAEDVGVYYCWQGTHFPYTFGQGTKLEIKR"
meas_value = -3.43

[[record]]
binder = "humanized anti-tip monoclonal antibody, heavy chain SEQ ID NO: 1 and light chain SEQ ID NO: 9 (antibody, V domains shown, also called H10210 (1F8.F1 Humanized HC1) + L10212 (1F8.F1 Humanized LC3)) VH: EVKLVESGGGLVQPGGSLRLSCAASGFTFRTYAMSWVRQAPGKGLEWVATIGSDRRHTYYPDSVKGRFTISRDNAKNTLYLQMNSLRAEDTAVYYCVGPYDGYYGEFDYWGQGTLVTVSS VL: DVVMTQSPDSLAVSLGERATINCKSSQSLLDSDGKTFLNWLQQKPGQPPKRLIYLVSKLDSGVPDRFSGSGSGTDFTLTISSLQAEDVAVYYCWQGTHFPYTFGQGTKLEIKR"
meas_value = -3.42

[[record]]
binder = "humanized anti-tip monoclonal antibody, heavy chain SEQ ID NO: 3 and light chain SEQ ID NO: 7 (antibody, V domains shown, also called H10212 (1F8.F1 Humanized HC3) + L10210 (1F8.F1 Humanized LC1)) VH: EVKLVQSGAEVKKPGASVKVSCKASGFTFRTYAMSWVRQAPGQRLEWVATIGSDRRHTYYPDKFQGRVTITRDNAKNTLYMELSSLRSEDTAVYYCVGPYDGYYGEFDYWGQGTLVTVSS VL: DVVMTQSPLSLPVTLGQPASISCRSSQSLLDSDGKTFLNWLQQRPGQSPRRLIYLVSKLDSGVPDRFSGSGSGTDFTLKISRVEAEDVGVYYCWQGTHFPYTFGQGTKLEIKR"
meas_value = -2.80

[[record]]
binder = "humanized anti-tip monoclonal antibody, heavy chain SEQ ID NO: 2 and light chain SEQ ID NO: 7 (antibody, V domains shown, also called H10211 (1F8.F1 Humanized HC2) + L10210 (1F8.F1 Humanized LC1)) VH: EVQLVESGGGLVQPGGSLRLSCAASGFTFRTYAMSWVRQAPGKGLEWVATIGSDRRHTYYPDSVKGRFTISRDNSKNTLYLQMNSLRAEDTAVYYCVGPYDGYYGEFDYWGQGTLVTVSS VL: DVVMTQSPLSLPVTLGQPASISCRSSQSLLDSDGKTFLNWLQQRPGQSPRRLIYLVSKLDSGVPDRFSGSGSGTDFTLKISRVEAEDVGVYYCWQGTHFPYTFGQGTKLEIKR"
meas_value = -3.82

